The following compounds are listed with their measured IC50 values.
Test system: HCC1395;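 note: growth inhibition of HCC1395 cells, read out by a cell viability assay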
EXPERIMENT_SUMMARY: cells
Format: functional, cell-based, Homo sapiens
CONDITION_PARAMETERS: Homo sapiens, HCC1395
Description: SANGER: Inhibition of human HCC1395 cell growth in a cell viability assay.

Known results for compounds:
1. COc1cc2c(Nc3ccc(NC(=O)c4ccccc4)cc3)ncnc2cc1OCCCN1CCOCC1; > 4 µM
2. CC1(C)CNc2cc(NC(=O)c3cccnc3NCc3ccncc3)ccc21; > 2 µM
3. Nc1cccc2c1CN(C1CCC(=O)NC1=O)C2=O (centres undefined) [LENALIDOMIDE]; > 5 µM

In the following, a different compound is considered.
The compound identified as CC(C)c1ccccc1Cc1cc(C(=O)Nc2ccc(S(=O)(=O)c3ccccc3C(C)(C)C)cc2)c(O)c(O)c1O registered its IC50 at 7.11 µM
